Each entry below carries its reported Feedstock Yield (g diacid/g added feedstock) sAA-1082.
tested on: sAA1082; test: Shake flask bioconversion of feedstocks of varying chain length (Example 72); assay type: cell-based, Candida; settings: shake flask; ethyl esters 1% v/v, alkanes 3% v/v

Examples from the recorded data:
{"Compound": "CCCCCCCCCCCCCCCCCC(=O)OCC [Ethyl stearate]", "Reported Result": "0.085 g diacid/g added feedstock"}
{"Compound": "CCCCCCCCCCCCCCCC(=O)OCC [Ethyl palmitate]", "Reported Result": "0.084 g diacid/g added feedstock"}
{"Compound": "CCCCCCCCCCCCCCC", "Reported Result": "0.673 g diacid/g added feedstock"}
{"Compound": "CCCCCCCCCCCCC", "Reported Result": "0.941 g diacid/g added feedstock"}

Please give measured Feedstock Yield (g diacid/g added feedstock) sAA-1082 of the following entry: CCCCCCCCCCCCCCCCC
0.555 g diacid/g added feedstock

Please give measured Feedstock Yield (g diacid/g added feedstock) sAA-1082 of the following entry: CCCCCCCCCCC
0.386 g diacid/g added feedstock

Please give measured Feedstock Yield (g diacid/g added feedstock) sAA-1082 of the following entry: CCCCCCCCCCCCCC(=O)OCC [Ethyl tetradecanoate]
0.404 g diacid/g added feedstock
